Where these numbers come from: patent US20210206877A1

EC50, HTRF long substrate assay listing for selected binders.
Target Or Test System: BACE1 ECD (as used in the enzyme activity assay) (UniProt P56817 22-457, limits assumed)
Sequence (P56817 22-457 limits assumed): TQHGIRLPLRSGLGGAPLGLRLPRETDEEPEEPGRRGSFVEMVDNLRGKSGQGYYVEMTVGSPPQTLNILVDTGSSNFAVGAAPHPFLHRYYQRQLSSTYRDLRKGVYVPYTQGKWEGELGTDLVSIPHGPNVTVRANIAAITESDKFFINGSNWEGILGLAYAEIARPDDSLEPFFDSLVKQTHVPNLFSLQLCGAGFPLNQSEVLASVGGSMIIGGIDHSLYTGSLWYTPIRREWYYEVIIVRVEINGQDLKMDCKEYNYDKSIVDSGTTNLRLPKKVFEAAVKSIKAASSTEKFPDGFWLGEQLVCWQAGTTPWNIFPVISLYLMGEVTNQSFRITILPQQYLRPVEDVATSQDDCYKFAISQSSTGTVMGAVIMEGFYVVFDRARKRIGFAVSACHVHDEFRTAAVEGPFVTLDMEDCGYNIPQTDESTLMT
Test: cell-based or functional assay

Binder | Units Label | EC50, HTRF long substrate assay
5883 (antibody, V domains shown) VH: QVQLVQSGAEVKKPGSSVKVSCKASGGTFSSYAISWVRQAPGQGLEWMGGIIPIGGGANYAQKFQGRVTITADESTSTAYMELSSLRSEDTAVYYCARSGGTKYGMLDVWGQGTMVTVSS VL: EIVMTQSPATLSVSPGERATLSCRASQSVSSNLAWYQQKPGQAPRLLIYGASTRATGIPARFSGSGSGTEFTLTISSLQSEDFAVYYCQQLILWPPRTFGGGTKVEIK | nM | 5.93
5881 (antibody, V domains shown) VH: EVQLLESGGGLVQPGGSLRLSCAASGFTFSKYAMSWVRQAPGKGLEWVSAISGSGISTPYADSVKGRFTISRDNSKNTLYLQMNSLRAEDTAVYYCAKGAGHGSYVKGWFDPWGQGTLVTVSS VL: EIVLTQSPATLSLSPGERATLSCRASQSVSSYLAWYQQKPGQAPRLLIYDASNRATGIPARFSGSGSGTDFTLTISSLEPEDFAVYYCQQSVNFPFTFGGGTKVEIK | nM | 33.7
5887 (antibody, V domains shown) VH: QVQLVQSGAEVKKPGSSVKVSCKASGGTFRGYAISWVRQAPGQGLEWMGNIIPGFGTANYAQKFQGRVTITADESTSTAYMELSSLRSEDTAVYYCARSGGTKYGMLDVWGQGTMVTVSS VL: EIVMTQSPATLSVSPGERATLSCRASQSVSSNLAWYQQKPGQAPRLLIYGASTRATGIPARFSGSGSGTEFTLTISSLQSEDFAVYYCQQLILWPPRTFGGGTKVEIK | nM | 5.5
5572 (antibody, V domains shown) VH: QVQLVQSGAEVKKPGSSVKVSCKASGGTFSSYAISWVRQAPGQGLEWMGSIIPIFGTANYAQKFQGRVTITADESTSTAYMELSSLRSEDTAVYYCARSGGTKYGMLDVWGQGTMVTVSS VL: EIVMTQSPATLSVSPGERATLSCRASQSVGSNLAWYQQKPGQAPRLLIYGASTRATGIPARFSGSGSGTEFTLTISSLQSEDFAVYYCQQLYTWPPRTFGGGTKVEIK | nM | 1.28
5260 (antibody, V domains shown) VH: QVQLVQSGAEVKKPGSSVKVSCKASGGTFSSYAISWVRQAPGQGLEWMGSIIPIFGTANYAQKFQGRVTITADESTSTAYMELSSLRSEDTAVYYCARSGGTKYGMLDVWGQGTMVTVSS VL: EIVMTQSPATLSVSPGERATLSCRASQSVGSNLAWYQQKPGQAPRLLIYGASTRATGIPARFSGSGSGTEFTLTISSLQSEDFAVYYCQQAVVWPPRTFGGGTKVEIK | nM | 720
5875 (antibody, V domains shown) VH: EVQLLESGGGLVQPGGSLRLSCAASGFTFSTYAMGWVRQAPGKGLEWVSATSGSGGSTYYADSVKGRFTISRDNSKNTLYLQMNSLRAEDTAVYYCAKGGSQWLYAPGSWFDPWGQGTLVTVSS VL: EIVLTQSPATLSLSPGERATLSCRASQSVSSYLAWYQQKPGQAPRLLIYDASNRATGIPARFSGSGSGTDFTLTISSLEPEDFAVYYCVQRSNFPWTFGGGTKVEIK | nM | 4.9
5884 (antibody, V domains shown) VH: QVQLVQSGAEVKKPGSSVKVSCKASGGTFSGYGISWVRQAPGQGLEWMGNIIPGFGTANYAQKFQGRVTITADESTSTAYMELSSLRSEDTAVYYCARSGGTKYGMLDVWGQGTMVTVSS VL: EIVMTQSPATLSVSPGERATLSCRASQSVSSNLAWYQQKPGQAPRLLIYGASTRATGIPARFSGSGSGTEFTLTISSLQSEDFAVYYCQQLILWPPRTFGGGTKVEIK | nM | 7.76
5543 (antibody, V domains shown) VH: QLQLQESGPGLVKPSETLSLTCTVSGGSISSSSYYWGWIRQPPGKGLEWIGSIYYSGSTYYNPSLKSRVTISVDTSKNQFSLKLSSVTAADTAVYYCARVGHGISYFDLWGRGTLVTVSS VL: EIVLTQSPATLSLSPGERATLSCRASQSVSSYLAWYQQKPGQAPRLLIYDASNRATGIPARFSGSGSGTDFTLTISSLEPEDFAVYYCQQAYVWPPRTFGGGTKVEIK | nM | 30
5643 (antibody, V domains shown) VH: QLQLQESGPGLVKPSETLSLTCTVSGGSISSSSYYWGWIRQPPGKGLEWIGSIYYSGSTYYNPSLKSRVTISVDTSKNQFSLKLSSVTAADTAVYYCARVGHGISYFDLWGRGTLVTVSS VL: EIVLTQSPATLSLSPGERATLSCRASQSVSSYLAWYQQKPGQAPRLLIYDASNRATGIPARFSGSGSGTDFTLTISSLEPEDFAVYYCQQSLTWPPRTFGGGTKVEIK | nM | 17.7
